melting point values for the compounds below.

The examples below pair each entry with its known result.
{"columns": ["compound", "melting point"],
 "data": [
  ["O=C(O)C1(c2ccc(Nc3nc(C4CCCC4)nc4c3CCC4)cc2)CCCC1 [Example 1]", "321 to 325 °C"],
  ["O=C(O)C1(c2ccc(Nc3nc(N4CCCC4)nc4c3CCC4)cc2)CCC1 [Example 6]", "245 to 247 °C"],
  ["O=C(O)C1(c2ccc(Nc3nc(N4CCC(O)CC4)nc4c3CCC4)cc2)CCC1 [Example 5]", "165 to 167 °C"]
]}

Field: next compound
Item: O=C(O)C1(c2ccc(Nc3nc(N4CCOCC4)nc4c3CCC4)cc2)CCC1 [Example 4] | melting point: 279 to 281 °C
